Test: Pharmacokinetics and relative bioavailability after a single oral dose (two liquid formulations, powder in capsule)
Assay type: in vivo, male Beagle dogs
Details: male, Beagle, dog, plasma, po, 2 mg/kg, Powder in Capsule (Table 45), 2 mg/kg oral, male Beagle dogs, Mean
reported-metric: half-life (h)
Numbers only, in h.

Task: Please look at this compound and report its half-life: "COc1cc(Nc2nccc(Nc3cccnc3-c3ccccn3)n2)ccc1N1CCN(C)CC1"
Output: 2.3

* * *

Experiment: Comparison of concentration in plasma and brain tissue
Format: in vivo, mice
Details: CD-1, mouse, po; brain, 20 mg/kg
reported-metric: Cmax (ng/g)
One number for each entry, in ng/g.

Task: Please look at this molecule and report its Cmax: "COc1cc(Nc2nccc(Nc3cccnc3-c3ccccn3)n2)ccc1N1CCN(C)CC1"
Output: 1690

* * *

Test: Pharmacokinetics and relative bioavailability after a single oral dose (two liquid formulations, powder in capsule)
Format: in vivo, male Beagle dogs
Conditions: male, Beagle, dog, plasma, po, 5 mg/kg, Formulation #2 (Table 44), 5 mg/kg oral, male Beagle dogs, individual dog
reported-metric: half-life (h)
Give bare numbers, in h.

Task: Please look at this compound and report its half-life: COc1cc(Nc2nccc(Nc3cccnc3-c3ccccn3)n2)ccc1N1CCN(C)CC1 [Compound 2]
Output: 5.4

* * *

Test: Pharmacokinetics and relative bioavailability after a single oral dose (two liquid formulations, powder in capsule)
Assay type: in vivo, male Beagle dogs
Settings: male, Beagle, dog, plasma, po, 2 mg/kg, Formulation #2 (Table 44), 2 mg/kg oral, male Beagle dogs, individual dog
reported-metric: half-life (h)
Give bare numbers, in h.

Task: Please look at this compound and report its half-life: "COc1cc(Nc2nccc(Nc3cccnc3-c3ccccn3)n2)ccc1N1CCN(C)CC1"
Output: 3.9

* * *

Assay: Kinetic solubility in pH 2, 5 and 7 buffers at RT
Format: physicochemical
Settings: 19 °C, aqueous buffer, thermodynamic from solid; pH 7 buffer, 4 hrs, RT; read-out: S: solubility
reported-metric: solubility at 4 h (µg/mL)
Give bare numbers, in µg/mL.

Task: Please look at this molecule and report its solubility at 4 h: COc1cc(Nc2nccc(Nc3cccnc3-c3ccccn3)n2)ccc1N1CCN(C)CC1 [Freebase Form A]
Output: 0.4

* * *

Test: Preliminary brain PK study
Assay type: in vivo
Conditions: mouse, mice, brain tissue, Table 5, route and dose not given
reported-metric: Tmax (h)
Answers are plain numbers, in h.

Task: Please look at this molecule and report its Tmax: COc1cc(Nc2nccc(Nc3cccnc3-c3ccccn3)n2)ccc1N1CCN(C)CC1 [Compound 2]
Output: 1.8

* * *

Experiment: Approximate solubility of freebase in 12 solvents at RT
Assay type: physicochemical
Conditions: organic solvent or mixture, thermodynamic from solid, Toluene
reported-metric: solubility

Task: Please look at this compound and report its solubility: COc1cc(Nc2nccc(Nc3cccnc3-c3ccccn3)n2)ccc1N1CCN(C)CC1 [Freebase Form A]
Output: 2000 to 4000 µg/mL

* * *

Test: Approximate solubility of freebase in 12 solvents at RT
Assay type: physicochemical
Conditions: organic solvent or mixture, thermodynamic from solid, EtOAc
reported-metric: solubility

Task: Please look at this compound and report its solubility: COc1cc(Nc2nccc(Nc3cccnc3-c3ccccn3)n2)ccc1N1CCN(C)CC1 [Freebase Form A]
Output: < 2500 µg/mL

* * *

Test: Pharmacokinetic and tissue distribution study
Type: in vivo, CD-1 male mice
Conditions: male, CD-1, mouse; mice, 20 mg/kg PO; liver
reported-metric: Cmax (ng/g)
One number for each entry, in ng/g.

Task: Please look at this compound and report its Cmax: "COc1cc(Nc2nccc(Nc3cccnc3-c3ccccn3)n2)ccc1N1CCN(C)CC1"
Output: 79900
